Measured melting point of individual entries

Recorded results for 6 compounds are shown here.
>>> df
                           substance_smiles  measured_value
0  COc1cc(COc2ccc(CNc3cc(C)nc4ccc(Br)cc34)cc2)cc(OC)c1   151 to 153 °C
1  Cc1cc(NCc2ccc(OCc3ccc(F)c(F)c3)cc2)c2cc(Cl)ccc2n1   137 to 139 °C
2  Cc1cc(NCc2ccc(OCc3ccc(F)c(F)c3)cc2)c2cc(Br)ccc2n1   142 to 144 °C
3  Cc1cc(NCc2ccc(OCc3ccc(C(C)C)cc3)cc2)c2cc(Br)ccc2n1   135 to 137 °C
4  Cc1cc(NCc2ccc(OCc3ccccc3)cc2)c2cc(Br)ccc2n1   164 to 166 °C
5  Cc1cc(NCc2ccc(OCc3ccc(F)c(F)c3)cc2)c2ccccc2n1   199 to 201 °C

Data request: // fetch melting point given entry COc1cc(COc2ccc(CNc3cc(C)nc4ccc(Cl)cc34)cc2)cc(OC)c1
Data returned: 147 to 149 °C

Data request: // fetch melting point given entry COc1ccc2nc(C)cc(NCc3ccc(OCc4ccc(C(C)C)cc4)cc3)c2c1
Data returned: 133 to 135 °C

Data request: Write down melting point measured for item COc1ccc2nc(C)cc(NCc3ccc(OCc4ccccc4)cc3)c2c1
Data returned: 96 to 98 °C

====

Let's go through some MIC measurements on M. tuberculosis H37Rv together.
Quick note: give the figure in µM, leave out the unit.

Data request: Fill in MIC for NNC(=O)c1ccncc1 [INH, isoniazid, reference compound] tested with M. tuberculosis H37Rv.
Data returned: 2.3

====

Recorded melting point values for a group of molecules are listed next.

Below, 5 molecules whose answers are already recorded.
In [3]: df
Out[3]:
                           substance_smiles  measured_value
0  Cc1cc(NCc2ccc(OCc3ccc(F)cc3)cc2)c2ccccc2n1   134 to 136 °C
1  Cc1cc(NCc2ccc(OCc3ccc(Cl)cc3)cc2)c2ccccc2n1   111 to 113 °C
2  Cc1cc(NCc2ccc(OCc3ccc(C(C)C)cc3)cc2)c2cc(Cl)ccc2n1   126 to 128 °C
3  COc1ccc2nc(C)cc(NCc3ccc(OCc4ccc(Cl)cc4)cc3)c2c1   259 to 261 °C
4  CCc1cc(NCc2ccc(OCc3ccccc3)cc2)c2cc(Br)ccc2n1   136 to 138 °C

Data request: Provide one value: measured melting point of Cc1cc(NCc2ccc(OCc3ccc(Cl)cc3)cc2)c2cc(Cl)ccc2n1
Data returned: 177 to 179 °C

Data request: Look up and report measured melting point for this entry: COc1cc(COc2ccc(CNc3cc(C)nc4ccccc34)cc2)cc(OC)c1
Data returned: 134 to 136 °C

Data request: Read off the recorded melting point for COc1cc(COc2ccc(CNc3cc(C)nc4ccc(OC)cc34)cc2)cc(OC)c1
Data returned: 164 to 166 °C

Data request: Give the value of melting point reported for the following: Cc1cc(NCc2ccc(OCc3ccc(C(C)C)cc3)cc2)c2ccccc2n1
Data returned: 95 to 97 °C

====

Assay explanation: Cellular viability of Vero cells (MTT and neutral red uptake)
Assay type: cell-based
Setup conditions: African green monkey, Vero cells; MTT method, 72 h
Experimental: Cellular viability was determined using two distinct methods—3-(4,5-dimethylthiazol-2-yl)-2,5-diphenyl-2H-tetrazolium bromide (MTT) and neutral red uptake (NRU). The cell lines employed in the evaluation were Vero and HepG2 cells. […] An EZ Read 400 microplate reader (Biochrom, Cambridge, UK) was used to measure the absorbance at 570 nm. […]
Observable: CC50 at 72 h

>>> print(df.to_string())
                           substance_smiles    observable  measured_value
0  Cc1cc(NCc2ccc(OCc3ccc(F)cc3)cc2)c2cc(Br)ccc2n1  CC50 at 72 h          > 3 µM

Turning to the following compound.
Data request: Output CC50 at 72 h of Cc1cc(NCc2ccc(OCc3ccc(Cl)cc3)cc2)c2cc(Br)ccc2n1
Data returned: > 3 µM

====

Assay explanation: Metabolic stability in rat liver microsomes
Type: in vitro ADME
Setup conditions: rat, microsomes
Observable: half-life (min)
Please respond with the number in min and leave the unit unwritten.

                                   molecule  observable  readout_unit  measured_value
0  Cc1cc(NCc2ccc(OCc3ccc(F)cc3)cc2)c2cc(Br)ccc2n1 [Compound 9o]   half-life           min             7.9

--- query ---
Data request: Consider the molecule Cc1cc(NCc2ccc(OCc3ccc(Cl)cc3)cc2)c2cc(Br)ccc2n1 [Compound 9n] and give its recorded half-life.
Data returned: 19

====

Tested on: M. tuberculosis H37Rv
Flag rule - MIC less than 10 µM flags criterion met; the remaining entries get criterion not met.

Some entries whose results are on file:
>>> df
                                   molecule  target_or_test_system              class
0  Cc1cc(NCc2ccc(OCc3ccc(F)cc3)cc2)c2ccccc2n1 [Compound 9c]  M. tuberculosis H37Rv  criterion not met
1  Cc1cc(NCc2ccc(OCc3ccc(C(C)C)cc3)cc2)c2ccccc2n1 [Compound 9e]  M. tuberculosis H37Rv  criterion not met
2  CCc1cc(NCc2ccc(OCc3ccccc3)cc2)c2cc(OC)ccc2n1 [Compound 9aa]  M. tuberculosis H37Rv  criterion not met
3  Cc1cc(NCc2ccc(OCc3ccc(C(C)C)cc3)cc2)c2cc(Br)ccc2n1 [Compound 9q]  M. tuberculosis H37Rv      criterion met
4  CCc1cc(NCc2ccc(OCc3ccccc3)cc2)c2cc(Br)ccc2n1 [Compound 9s]  M. tuberculosis H37Rv      criterion met
5  COc1ccc2nc(C)cc(NCc3ccc(OCc4ccc(F)c(F)c4)cc3)c2c1 [Compound 9y]  M. tuberculosis H37Rv      criterion met

Data request: Consider the molecule Cc1cc(NCc2ccc(OCc3ccc(F)cc3)cc2)c2cc(Cl)ccc2n1 [Compound 9i] . Is its MIC strictly less than 10 µM?
Data returned: criterion met

====

// reported MIC for each item listed
Tested on: M. tuberculosis H37Rv
Give your result in µM as a bare value.

In the examples that follow, each entry is paired with its recorded MIC.
                           substance_smiles  target_or_test_system  measured_value
0  COc1cc(COc2ccc(CNc3cc(C)nc4ccc(Cl)cc34)cc2)cc(OC)c1  M. tuberculosis H37Rv             5.7
1  Cc1cc(NCc2ccc(OCc3ccc(C(C)C)cc3)cc2)c2cc(Cl)ccc2n1  M. tuberculosis H37Rv             5.8

// next entry
Data request: Report its MIC with M. tuberculosis H37Rv as the test system: Cc1cc(NCc2ccc(OCc3ccc(F)c(F)c3)cc2)c2ccccc2n1
Data returned: 25.6

====

Tested on: M. tuberculosis H37Rv
Labelling field: enter yes if recorded MIC is less than 6 µM. Enter no if it equals or exceeds that cut-off.

                           substance_smiles  class
0  Cc1cc(NCc2ccc(OCc3ccccc3)cc2)c2cc(Cl)ccc2n1     no
1  COc1cc(COc2ccc(CNc3cc(C)nc4ccc(OC)cc34)cc2)cc(OC)c1     no
2  Cc1cc(NCc2ccc(OCc3ccc(F)cc3)cc2)c2cc(Br)ccc2n1    yes

Data request: Strictly below 6 µM: is that where MIC of COc1cc(COc2ccc(CNc3cc(C)nc4ccc(Br)cc34)cc2)cc(OC)c1 sits?
Data returned: yes

Data request: Consider the compound Cc1cc(NCc2ccc(OCc3ccc(Cl)cc3)cc2)c2cc(Br)ccc2n1 . Is its MIC strictly less than 6 µM?
Data returned: yes

Data request: Item Cc1cc(NCc2ccc(OCc3ccc(Cl)cc3)cc2)c2ccccc2n1 : MIC beneath 6 µM, strictly?
Data returned: no

Data request: Lab log: compare recorded MIC with 6 µM; is it strictly lower for COc1ccc2nc(C)cc(NCc3ccc(OCc4ccc(Cl)cc4)cc3)c2c1 ?
Data returned: no

Data request: Bench note: check whether CCc1cc(NCc2ccc(OCc3ccc(Cl)cc3)cc2)c2cc(Br)ccc2n1 shows MIC below 6 µM
Data returned: yes

Data request: Please indicate whether the reported MIC of Cc1cc(NCc2ccc(OCc3ccc(F)c(F)c3)cc2)c2cc(Br)ccc2n1 is strictly below 6 µM.
Data returned: yes

Data request: Lab note: confirm whether the reported MIC for this compound is below 6 µM, equality not counting. compound: COc1ccc2nc(C)cc(NCc3ccc(OCc4ccccc4)cc3)c2c1
Data returned: no

Data request: Please let me know if Cc1cc(NCc2ccc(OCc3ccccc3)cc2)c2cc(Br)ccc2n1 shows MIC below 6 µM.
Data returned: yes

====

Observed MIC values for M. tuberculosis H37Rv are listed in what follows.
Provide the reading as a plain figure in µM.

In [3]: df
Out[3]:
                                   compound  target_or_test_system  observable  readout_unit  measured_value
0  Cc1cc(NCc2ccc(OCc3ccc(F)c(F)c3)cc2)c2cc(Cl)ccc2n1 [Compound 9j]  M. tuberculosis H37Rv         MIC            µM             5.9
1  COc1ccc2nc(C)cc(NCc3ccc(OCc4ccc(F)cc4)cc3)c2c1 [Compound 9x]  M. tuberculosis H37Rv         MIC            µM            12.4

Data request: Indicate the recorded MIC value for this compound: Cc1cc(NCc2ccc(OCc3ccc(Cl)cc3)cc2)c2cc(Cl)ccc2n1 [Compound 9h]
Data returned: 5.9

Data request: Give recorded MIC. COc1ccc2nc(C)cc(NCc3ccc(OCc4ccc(C(C)C)cc4)cc3)c2c1 [Compound 9w]
Data returned: 23.4

Data request: For the compound COc1cc(COc2ccc(CNc3cc(C)nc4ccccc34)cc2)cc(OC)c1 [Compound 9f] , report MIC.
Data returned: 12.1
